# procedure text: Kinetic solubility of the compound in buffer at pH 7.4 after 16 to 19 hrs by UV absorbance assay
# Assay type: physicochemical
# settings: read-out: Kinetic_solubility
property label: solubility kinetic

Some compounds with known solubility kinetic results, for comparison:
1. CCOc1ncc(-c2nnc(-c3cc(F)c(OC[C@H](N)CO)cc3Cl)s2)cc1Cl = < 0.1 µg/mL
2. Cc1cc(-c2nc(-c3ccc(OC[C@H]4COC(=O)N4)c(C)n3)no2)cc(CC(C)C)n1 = > 40 µg/mL
3. CC(C)Oc1ccc(-c2nc(-c3cc(F)c(OC[C@H](N)CO)cc3Cl)no2)cc1C#N = < 0.1 µg/mL
4. CC(C)Oc1ccc(-c2nnc(-c3cc(F)c(OC[C@H](N)CO)cc3Cl)s2)cc1Cl = < 0.1 µg/mL

# context switch: different compound, same solubility kinetic
Bench note: what solubility kinetic did Cc1cc(-c2nnc(-c3cc(F)c(OC[C@H](N)CO)cc3Cl)s2)cc(OC(C)C)n1 show? < 0.1 µg/mL

====

# test target: Sphingosine 1-phosphate receptor 1 (Homo sapiens, UniProt P21453)
# Sequence (P21453 whole entry): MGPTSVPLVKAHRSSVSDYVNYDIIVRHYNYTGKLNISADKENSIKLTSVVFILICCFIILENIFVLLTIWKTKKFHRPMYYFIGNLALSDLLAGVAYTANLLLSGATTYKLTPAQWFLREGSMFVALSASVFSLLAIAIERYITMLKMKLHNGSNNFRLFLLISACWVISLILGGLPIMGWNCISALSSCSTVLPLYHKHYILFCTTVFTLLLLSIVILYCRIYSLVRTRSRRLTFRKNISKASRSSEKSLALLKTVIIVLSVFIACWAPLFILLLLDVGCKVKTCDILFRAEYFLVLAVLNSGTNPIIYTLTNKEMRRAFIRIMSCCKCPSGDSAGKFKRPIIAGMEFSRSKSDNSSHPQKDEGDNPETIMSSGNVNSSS
# procedure text: Agonist activity at human S1P1 receptor expressed in EDG1-bla U2OS cells incubated for 18 hrs prior to GenBlazer substrate addition by beta-arrestin recruitment assay
property label: EC50 (nM)
Return type: number; implicit unit nM.

1) Cc1cc(-c2nc(-c3cnc(OC[C@H]4COC(=O)N4)cn3)no2)cc(NC(C)C)n1 = 150
2) CC(C)Oc1ncc(-c2nnc(-c3cc(F)c(OC[C@H](N)CO)cc3Cl)s2)cc1C#N = 13
3) CC(C)Oc1ncc(-c2nnc(-c3cc(F)c(OC[C@H](N)CO)cc3Cl)s2)cc1Cl = 100
4) Cc1nc(-c2nc(-c3cc(F)c(OC[C@H](N)CO)cc3Cl)no2)ccc1OC(C)C = 49
5) Cc1cc(-c2nc(-c3cc(F)c(OC[C@H](N)CO)cc3Cl)no2)cc(NC(C)C)n1 = 4

# context switch: different compound, same EC50
Notebook: pull reported EC50 for Sphingosine 1-phosphate receptor 1 (Homo sapiens, UniProt P21453), entry Cc1nc(CC(C)C)cc(-c2nc(-c3ccc(O[C@@H]4CCC(=O)NC4)c(F)c3)no2)n1 50

====

# test target: UniProtKB P21453
# procedure text: Agonist activity at human S1P1 receptor expressed in EDG1-bla U2OS cells incubated for 18 hrs prior to GenBlazer substrate addition by beta-arrestin recruitment assay
property label: pEC50
Value format note: pEC50 is -log10 of concentration (mol/L); just state the number.

1) Cc1cc(-c2nnc(-c3cc(F)c(O[C@H]4COC[C@H]4O)cc3Cl)s2)cc(NC(C)C)n1 (racemic) = 6.83
2) Cc1cc(-c2nnc(-c3cc(F)c(OC[C@H](N)CO)cc3Cl)s2)cc(OC(C)C)n1 = 6.89
3) Cc1cc(-c2nc(-c3ccc(OC[C@H]4COC(=O)N4)cn3)no2)cc(NC(C)C)n1 = 6.92
4) Cc1cc(-c2nc(-c3ccc(OC[C@H]4COC(=O)N4)c(C)n3)no2)cc(NC(C)C)n1 = 8.10

Bench note: what pEC50 did CC(C)Cc1ccc(-c2nc(-c3ccc([C@@H](C)N[C@H]4C[C@@H](C(=O)O)C4)cc3)no2)cc1 show? 8.72

Item: CCCCCCCCCCCCC/C=C/[C@@H](O)[C@@H](N)COP(=O)(O)O 8.55

Item: Cc1cc(-c2nnc(-c3cc(F)c(OC[C@H](N)CO)cc3Cl)s2)cc(NC(C)C)n1 7.74

Item: CCOc1ncc(-c2nnc(-c3cc(F)c(OC[C@H](N)CO)cc3Cl)s2)cc1Cl 6.23

Item: Cc1cc(-c2nc(-c3ccc(OC[C@H]4COC(=O)N4)c(F)c3)no2)cc(NC(C)C)n1 9.30

Item: Cc1cc(-c2nnc(-c3cc(F)c(O[C@@H]4CNC(=O)C4)cc3Cl)s2)cc(NC(C)C)n1 6.25

Item: Cc1cc(-c2nnc(-c3cc(F)c(O[C@H]4CCC(=O)NC4)cc3Cl)s2)cc(NC(C)C)n1 6.80

Item: CCOc1ncc(-c2nc(-c3cc(F)c(OC[C@H](N)CO)cc3Cl)no2)cc1Cl 7.21

Item: Cc1cc(-c2nc(-c3cc(C)c(OC[C@@H]4CCC(=O)N4)c(C)n3)no2)cc(CC(C)C)n1 7.96

Item: Cc1cc(-c2nc(-c3cnc(OC[C@H]4COC(=O)N4)cn3)no2)cc(CC(C)C)n1 6.70

Item: CC(C)Oc1ccc(-c2nc(-c3cc(F)c(OC[C@H](N)CO)cc3Cl)no2)cc1Cl 8.39

Item: Cc1cc(-c2nc(-c3ccc(OC[C@H]4COC(=O)N4)nc3)no2)cc(NC(C)C)n1 8.14

Item: Cc1cc(-c2nnc(-c3cc(F)c(O[C@@H]4CCC(=O)NC4)cc3Cl)s2)cc(NC(C)C)n1 6.52

Item: Cc1nc(CC(C)C)cc(-c2nc(-c3cc(F)c(O[C@@H]4CCC(=O)N(C)C4)cc3Cl)no2)n1 7.49

Item: Cc1cc(-c2nc(-c3cc(F)c(O[C@H]4CCC(=O)NC4)cc3Cl)no2)cc(NC(C)C)n1 9.70

Item: Cc1cc(-c2nc(-c3cc(F)c(O[C@H]4COC[C@H]4O)cc3Cl)no2)cc(NC(C)C)n1 (racemic) 9.10

Item: CC(C)Oc1ncc(-c2nc(-c3cc(F)c(OC[C@H](N)CO)cc3Cl)no2)cc1C#N 9.30

Item: Cc1cc(-c2nnc(-c3cc(F)c(OC[C@H]4OCC[C@@H]4O)cc3Cl)s2)cc(NC(C)C)n1 6.60
